Biological target: human FASN (Homo sapiens, UniProt P49327)
Construct: was purified from SKBR3 cells using procedures modified from those in Jayakumar et al; endogenous in cells; host or cells: SKBR3 human breast cancer cells (ATCC); Endogenous enzyme purified by ammonium sulfate precipitation and a mono Q column
Sequence (P49327 whole entry): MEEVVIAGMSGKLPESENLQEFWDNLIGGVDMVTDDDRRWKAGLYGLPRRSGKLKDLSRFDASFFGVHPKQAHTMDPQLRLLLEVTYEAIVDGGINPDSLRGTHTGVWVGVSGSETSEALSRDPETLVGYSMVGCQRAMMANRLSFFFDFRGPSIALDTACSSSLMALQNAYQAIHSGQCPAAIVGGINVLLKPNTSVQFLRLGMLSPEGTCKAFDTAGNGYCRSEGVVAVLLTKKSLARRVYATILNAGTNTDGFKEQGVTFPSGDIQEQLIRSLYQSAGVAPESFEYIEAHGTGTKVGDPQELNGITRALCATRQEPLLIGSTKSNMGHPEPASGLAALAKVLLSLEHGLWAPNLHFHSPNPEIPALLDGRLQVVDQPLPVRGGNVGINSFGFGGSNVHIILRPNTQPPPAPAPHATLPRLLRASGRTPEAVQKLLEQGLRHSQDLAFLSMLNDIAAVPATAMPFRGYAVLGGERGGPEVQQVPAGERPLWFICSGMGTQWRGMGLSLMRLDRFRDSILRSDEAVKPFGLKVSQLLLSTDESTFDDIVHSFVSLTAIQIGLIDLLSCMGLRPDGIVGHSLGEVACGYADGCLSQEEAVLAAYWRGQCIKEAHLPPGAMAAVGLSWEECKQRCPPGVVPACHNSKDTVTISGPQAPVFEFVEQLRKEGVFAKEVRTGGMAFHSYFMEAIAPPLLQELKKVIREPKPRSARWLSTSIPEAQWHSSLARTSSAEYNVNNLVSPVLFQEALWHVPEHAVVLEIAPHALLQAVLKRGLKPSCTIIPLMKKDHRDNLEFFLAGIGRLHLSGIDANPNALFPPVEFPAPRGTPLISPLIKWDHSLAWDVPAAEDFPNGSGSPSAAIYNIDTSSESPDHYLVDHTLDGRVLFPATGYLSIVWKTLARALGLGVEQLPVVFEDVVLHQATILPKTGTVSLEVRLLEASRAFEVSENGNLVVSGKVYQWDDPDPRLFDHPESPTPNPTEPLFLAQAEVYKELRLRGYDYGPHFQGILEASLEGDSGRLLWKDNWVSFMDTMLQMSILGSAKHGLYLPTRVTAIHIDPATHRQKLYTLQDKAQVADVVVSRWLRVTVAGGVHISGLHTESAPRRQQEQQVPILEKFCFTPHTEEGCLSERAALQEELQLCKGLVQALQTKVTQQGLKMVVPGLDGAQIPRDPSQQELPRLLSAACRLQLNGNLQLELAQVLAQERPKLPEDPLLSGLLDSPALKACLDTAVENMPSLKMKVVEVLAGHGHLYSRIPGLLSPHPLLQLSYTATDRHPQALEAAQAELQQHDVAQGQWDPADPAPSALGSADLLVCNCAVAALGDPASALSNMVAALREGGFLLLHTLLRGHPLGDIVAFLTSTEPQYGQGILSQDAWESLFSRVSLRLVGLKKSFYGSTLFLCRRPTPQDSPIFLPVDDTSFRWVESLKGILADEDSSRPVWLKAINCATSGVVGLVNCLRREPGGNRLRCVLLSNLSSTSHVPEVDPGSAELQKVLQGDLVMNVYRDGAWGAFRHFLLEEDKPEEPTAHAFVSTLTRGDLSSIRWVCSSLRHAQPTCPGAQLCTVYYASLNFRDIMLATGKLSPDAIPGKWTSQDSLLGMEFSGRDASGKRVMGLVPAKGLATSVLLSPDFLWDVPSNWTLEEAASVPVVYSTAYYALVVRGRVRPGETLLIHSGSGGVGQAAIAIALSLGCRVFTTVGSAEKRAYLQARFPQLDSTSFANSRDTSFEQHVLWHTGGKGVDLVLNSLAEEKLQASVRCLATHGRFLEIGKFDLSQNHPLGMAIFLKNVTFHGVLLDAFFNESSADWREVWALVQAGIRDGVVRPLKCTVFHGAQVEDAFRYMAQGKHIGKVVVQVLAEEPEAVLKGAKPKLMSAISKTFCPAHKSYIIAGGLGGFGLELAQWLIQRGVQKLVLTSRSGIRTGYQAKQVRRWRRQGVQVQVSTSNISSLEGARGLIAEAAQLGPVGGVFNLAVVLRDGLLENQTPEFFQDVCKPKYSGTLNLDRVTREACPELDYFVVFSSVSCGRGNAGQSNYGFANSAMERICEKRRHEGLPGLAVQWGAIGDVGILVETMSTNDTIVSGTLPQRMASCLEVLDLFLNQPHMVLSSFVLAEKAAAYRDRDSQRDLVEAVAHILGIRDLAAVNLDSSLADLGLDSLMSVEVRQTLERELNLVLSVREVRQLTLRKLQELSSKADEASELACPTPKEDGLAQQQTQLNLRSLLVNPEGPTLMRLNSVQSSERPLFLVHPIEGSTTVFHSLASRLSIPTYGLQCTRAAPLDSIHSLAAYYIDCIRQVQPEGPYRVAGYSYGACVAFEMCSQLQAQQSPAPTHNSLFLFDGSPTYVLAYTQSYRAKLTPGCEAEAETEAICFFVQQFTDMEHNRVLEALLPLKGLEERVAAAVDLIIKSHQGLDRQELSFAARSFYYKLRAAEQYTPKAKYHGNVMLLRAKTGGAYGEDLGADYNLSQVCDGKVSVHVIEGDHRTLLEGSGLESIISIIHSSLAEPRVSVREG
Assay: FASN NADPH Consumption Assay
Type: biochemical
Settings: human FASN purified from SKBR3 cells; starred symbols

- Molecule: "CCN(C(=O)n1nnn(-c2ccc(OC)cc2)c1=O)C1CCCCC1"
  IC50: "> 10000 nM"
- Molecule: "CNC(=O)CN(C(=O)n1nnn(-c2c(Cl)cccc2Cl)c1=O)C1CCCCC1"
  IC50: "1000 to 10000 nM"
- Molecule: "CCOC(=O)c1ccc(N(C(=O)n2nnn(-c3c(F)cccc3F)c2=O)N(C)C)cc1"
  IC50: "60 to 250 nM"
- Molecule: "O=C(N(Cc1ccco1)C1CCCCC1)n1nnn(-c2c(Cl)cccc2Cl)c1=O"
  IC50: "> 10000 nM"
- Molecule: "CN(C(=O)n1nnn(-c2ccccc2Cl)c1=O)c1cccc(F)c1"
  IC50: "250 to 1000 nM"
- Molecule: "CCN(C(=O)n1nnn(-c2c(Cl)cccc2Cl)c1=O)C1CCCC(C(=O)NC)C1 (stereo not shown)"
  IC50: "1000 to 10000 nM"
- Molecule: "CN(C)C1CCCN(C(=O)n2nnn(-c3c(Cl)cccc3Cl)c2=O)C1 (stereo not shown)"
  IC50: "1000 to 10000 nM"
- Molecule: "CCN(C(=O)n1nnn(-c2c(Cl)cccc2Cl)c1=O)c1ccc(C(=O)OCc2ccccc2)c(OC)c1"
  IC50: "60 to 250 nM"
- Molecule: "CN(C(=O)n1nnn(-c2ccccc2Cl)c1=O)c1ccc(Br)cc1"
  IC50: "60 to 250 nM"
- Molecule: "CCN(C(=O)n1nnn(-c2ccccc2OC)c1=O)c1ccc(C(=O)O)cc1"
  IC50: "60 to 250 nM"

* * *

Below, each of the molecules is paired with its reported pIC50 value.
Target: human FASN (Homo sapiens, UniProt P49327)
Construct: was purified from SKBR3 cells using procedures modified from those in Jayakumar et al; endogenous in cells; host or cells: SKBR3 human breast cancer cells (ATCC); Endogenous enzyme purified by ammonium sulfate precipitation and a mono Q column
Assay: FASN NADPH Consumption Assay
Assay type: biochemical
Conditions: human FASN purified from SKBR3 cells; starred symbols
pIC50: −log10 of the molar value.
Test Readout: pIC50

- Molecule: "CCN(C(=O)n1nnn(-c2ccccc2OC(F)(F)F)c1=O)C1CCCCC1"
  Result: "5.00 to 6.00"
- Molecule: "COc1ccc(C(=O)O)cc1N(CCCc1ccccc1)C(=O)n1nnn(-c2c(F)cccc2F)c1=O"
  Result: "6.60 to 7.22"
- Molecule: "CCN(C(=O)n1nnn(-c2c(F)cccc2C(=O)O)c1=O)c1ccccc1Oc1ccccc1"
  Result: "5.00 to 6.00"
- Molecule: "CCN(C(=O)n1nnn(-c2c(Cl)cccc2Cl)c1=O)c1ccc(C(=O)O)c(OC)c1"
  Result: "6.60 to 7.22"
- Molecule: "CCN(C(=O)n1nnn(-c2c(F)cccc2F)c1=O)c1ccccc1C"
  Result: "6.60 to 7.22"
- Molecule: "CC(C)N(C(=O)n1nnn(-c2ccccc2Cl)c1=O)C(C)C"
  Result: "< 5.00"
- Molecule: "Nc1cccc2c1CCCN2C(=O)n1nnn(-c2c(F)cccc2F)c1=O"
  Result: "6.60 to 7.22"
- Molecule: "O=C(C1CCCN(C(=O)n2nnn(-c3c(Cl)cccc3Cl)c2=O)C1)N1CCCC1 (centres unmarked)"
  Result: "< 5.00"
- Molecule: "CN(C)N(C(=O)n1nnn(-c2cccc(Cl)c2)c1=O)C1=CCCCC1"
  Result: "5.00 to 6.00"
- Molecule: "CCN(C(=O)n1nnn(-c2c(F)cccc2F)c1=O)c1ccc(Cl)cc1"
  Result: "6.60 to 7.22"
- Molecule: "O=CNc1cccc2c1CCCN2C(=O)n1nnn(-c2c(F)cccc2F)c1=O"
  Result: "6.60 to 7.22"
- Molecule: "CCN(C(=O)n1nnn(-c2c(Cl)cccc2Cl)c1=O)c1ccc(C(=O)O)cc1OC"
  Result: "6.60 to 7.22"
- Molecule: "N#CCCN(C(=O)n1nnn(-c2c(Cl)cccc2Cl)c1=O)C1CCCCC1"
  Result: "5.00 to 6.00"
- Molecule: "CCN(C(=O)n1nnn(-c2cccc(C#N)c2)c1=O)C1CCCCC1"
  Result: "< 5.00"
- Molecule: "CCN(C(=O)n1nnn(-c2c(F)cccc2F)c1=O)c1ccc(C#Cc2ccccc2)cc1F"
  Result: "6.60 to 7.22"
- Molecule: "CCN(C(=O)n1nnn(-c2c(Cl)cccc2Cl)c1=O)C1CCCC(C(=O)N2CCOCC2)C1 (centres unmarked)"
  Result: "5.00 to 6.00"
- Molecule: "CCCCCCN(C(=O)n1nnn(-c2ccccc2OC)c1=O)c1cc(C(=O)O)ccc1OC"
  Result: "6.00 to 6.60"
- Molecule: "CCC(C)c1ccccc1-n1nnn(C(=O)N(CC)C2CCCCC2)c1=O (centres unmarked)"
  Result: "5.00 to 6.00"
- Molecule: "CCN(C(=O)n1nnn(-c2c(OC)cccc2OC)c1=O)c1ccc(C(=O)OCc2ccccc2)c(OC)c1"
  Result: "6.00 to 6.60"
- Molecule: "CCN(C(=O)n1nnn(-c2cccs2)c1=O)C1CCCCC1"
  Result: "5.00 to 6.00"
- Molecule: "CCN(C(=O)n1nnn(-c2c(Cl)cccc2Cl)c1=O)C1CCN(C(=O)CCC(=O)O)CC1"
  Result: "5.00 to 6.00"
- Molecule: "CN(C(=O)n1nnn(-c2ccccc2F)c1=O)c1ccccc1"
  Result: "6.00 to 6.60"
- Molecule: "CCN(C(=O)n1nnn(-c2c(OC)cccc2OC)c1=O)c1ccc(C(=O)O)c(OC)c1"
  Result: "6.00 to 6.60"
- Molecule: "CCN(C(=O)n1nnn(-c2ccccc2OC)c1=O)c1ccc(C(=O)O)c(OC)c1"
  Result: "6.60 to 7.22"
- Molecule: "CCN(C(=O)n1nnn(-c2c(F)cccc2F)c1=O)c1ccc(C(=O)OCc2ccccc2)c(OC)c1"
  Result: "6.60 to 7.22"
- Molecule: "CCN(C(=O)n1nnn(-c2ccc([N+](=O)[O-])cc2)c1=O)C1CCCCC1"
  Result: "5.00 to 6.00"
- Molecule: "Cc1ccccc1CCc1cccc(F)c1-n1nnn(C(=O)N2CCCCc3ccccc32)c1=O"
  Result: "6.60 to 7.22"
- Molecule: "O=C(N1CCCc2cc([N+](=O)[O-])ccc21)n1nnn(-c2c(F)cccc2F)c1=O"
  Result: "5.00 to 6.00"
- Molecule: "CN(C(=O)n1nnn(-c2c(F)cccc2F)c1=O)c1cccc(Br)c1"
  Result: "6.60 to 7.22"
- Molecule: "O=C(N1CCCCC1)n1nnn(-c2c(Cl)cccc2Cl)c1=O"
  Result: "5.00 to 6.00"
- Molecule: "CCN(C(=O)n1nnn(-c2ccccc2Br)c1=O)C1CCCCC1"
  Result: "5.00 to 6.00"
- Molecule: "CCN(C(=O)n1nnn(-c2c(F)cccc2F)c1=O)c1cc(F)ccc1F"
  Result: "> 7.22"
- Molecule: "CC(C)(C)OC(=O)N(C(=O)n1nnn(-c2c(F)cccc2F)c1=O)c1ccco1"
  Result: "5.00 to 6.00"
- Molecule: "O=CNc1ccc2c(c1)CCCN2C(=O)n1nnn(-c2c(F)cccc2F)c1=O"
  Result: "6.60 to 7.22"
- Molecule: "O=C(N1CCOc2ccccc21)n1nnn(-c2c(F)cccc2F)c1=O"
  Result: "5.00 to 6.00"
- Molecule: "CCN(C(=O)n1nnn(-c2c(F)cccc2Br)c1=O)c1ccccc1"
  Result: "6.60 to 7.22"
- Molecule: "C=CCN(C(=O)n1nnn(-c2ccccc2Oc2ccccc2)c1=O)C1CCN(C(=O)OC(C)(C)C)CC1"
  Result: "5.00 to 6.00"
- Molecule: "O=C(N1c2ccccc2Sc2ccccc21)n1nnn(-c2c(F)cccc2F)c1=O"
  Result: "> 7.22"
- Molecule: "CCN(C)C(=O)n1nnn(-c2ccccc2Cl)c1=O"
  Result: "< 5.00"
- Molecule: "CCOC(=O)N1CCC(N(CC)C(=O)n2nnn(-c3c(Cl)cccc3Cl)c2=O)CC1"
  Result: "5.00 to 6.00"
- Molecule: "CCN(C(=O)n1nnn(-c2c(Cl)cccc2Cl)c1=O)c1cccc(C(=O)O)c1OC"
  Result: "5.00 to 6.00"

* * *

Molecular target: human FASN (Homo sapiens)
Construct: was purified from SKBR3 cells using procedures modified from those in Jayakumar et al; endogenous in cells; host or cells: SKBR3 human breast cancer cells (ATCC); Endogenous enzyme purified by ammonium sulfate precipitation and a mono Q column
Assay: FASN Scintillation Proximity Flashplate Assay
Type: biochemical
Conditions: human FASN purified from SKBR3 cells; unstarred symbols
pIC50: −log10 of the molar value.
Each record here notes measured pIC50.

- Smiles Code: "CCNC(=O)N1CCN(c2ccc(N(C(=O)n3nnn(-c4c(F)cccc4F)c3=O)C3CCCCC3)cc2C(=O)O)CC1"
  pIC50: "> 7.82"
- Smiles Code: "COc1cccc(F)c1-n1nnn(C(=O)N(c2ccccc2)C2CCCC2)c1=O"
  pIC50: "> 7.82"
- Smiles Code: "CC(C)N(C(=O)n1nnn(-c2c(F)cccc2F)c1=O)c1cccc(C(=O)O)c1"
  pIC50: "7.00 to 7.82"
- Smiles Code: "CCN(C(=O)n1nnn(-c2c(Cl)cccc2Cl)c1=O)c1ccc(C(=O)OC)cc1"
  pIC50: "7.00 to 7.82"
- Smiles Code: "O=C(O)c1cc(N(C(=O)n2nnn(-c3c(F)cccc3F)c2=O)C2CCCCC2)ccc1N1CCOCC1"
  pIC50: "7.00 to 7.82"
- Smiles Code: "CCN(C(=O)n1nnn(-c2c(F)cccc2OC)c1=O)c1cc(Oc2ccc(C(=O)OCc3ccccc3)cc2)ccc1C"
  pIC50: "5.30 to 6.70"
- Smiles Code: "COc1cccc(F)c1-n1nnn(C(=O)N(c2cccc(C(=O)OCc3ccccc3)c2)C2CC2)c1=O"
  pIC50: "> 7.82"
- Smiles Code: "COc1ccc(N(C(=O)n2nnn(-c3c(F)cccc3OC)c2=O)C(C)C)cc1C(=O)O"
  pIC50: "7.00 to 7.82"
- Smiles Code: "CCNC(=O)Nc1ccc(N(CC)C(=O)n2nnn(-c3c(F)cccc3F)c2=O)c(F)c1"
  pIC50: "> 7.82"
